runDescription: Pharmacokinetic study in rat
Assay type: in vivo
runParameters: in vivo, iv, Tmax (h)
Experimental: The Silymarin-CAPTISOL® complex was administered to rat to test its pharmacokinetic properties. On arrival rats were housed individually in cages at animal care facility in a temperature and humidity controlled room with a 12 h:12 h (light:dark) cycles. The rats were provided with free access to food and water for one week before using for experimental purpose. […] The animal was weighed and appropriate dosing volume was determined. […]

| inputSmiles | unitAbbrev | Tmax |
| --- | --- | --- |
| COc1cc([C@H]2Oc3ccc([C@H]4Oc5cc(O)cc(O)c5C(=O)[C@@H]4O)cc3O[C@@H]2CO)ccc1O | min | 4.2 |
| COc1cc([C@@H]2Oc3cc([C@H]4Oc5cc(O)cc(O)c5C(=O)[C@@H]4O)ccc3O[C@H]2CO)ccc1O | min | 7.2 |
| COc1cc([C@H]2Oc3cc([C@H]4Oc5cc(O)cc(O)c5C(=O)[C@@H]4O)ccc3O[C@@H]2CO)ccc1O | min | 7.2 |

====

Quick reference for solubility among some compounds
runDescription: Silymarin saturated solubility with CAPTISOL® (Example 1, HPLC)
runParameters: 0.3 M CAPTISOL in water, 25 °C, aqueous with cosolvent or surfactant or cyclodextrin, thermodynamic from solid, Solubility (mg/ml) of flavonolignan components of silymarin, CAPTISOL® (0.3M) in water, saturated with excess silymarin
metricName: solubility

| compound | measured |
| --- | --- |
| COc1cc([C@H]2Oc3c(O)cc([C@H]4Oc5cc(O)cc(O)c5C(=O)[C@@H]4O)cc3[C@@H]2CO)ccc1O [Silychristin B] | 2.5 mg/mL |
| COc1cc([C@@H]2Oc3cc([C@H]4Oc5cc(O)cc(O)c5C(=O)[C@@H]4O)ccc3O[C@H]2CO)ccc1O [Silybin B] | 15.8 mg/mL |
| COc1cc([C@@H]2Oc3c(O)cc([C@H]4Oc5cc(O)cc(O)c5C(=O)[C@@H]4O)cc3[C@H]2CO)ccc1O [Silychristin A] | 26.9 mg/mL |
| COc1cc([C@H]2Oc3cc([C@H]4Oc5cc(O)cc(O)c5C(=O)[C@@H]4O)ccc3O[C@@H]2CO)ccc1O [Silybin A] | 7.33 mg/mL |

====

runDescription: Silymarin saturated solubility with CAPTISOL® (Example 1, HPLC)
runParameters: CAPTISOL® (0.2M), saturated solubility
Quick reference for Percentages of flavonolignan components of silymarin in the sample among some molecules
metricName: Percentages of flavonolignan components of silymarin in the sample (%)

| molecule | measured |
| --- | --- |
| COc1cc([C@@H]2Oc3c(O)cc([C@H]4Oc5cc(O)cc(O)c5C(=O)[C@@H]4O)cc3[C@H]2CO)ccc1O [Silychristin A] | 38.52 |
| COc1cc([C@@H]2Oc3cc([C@H]4Oc5cc(O)cc(O)c5C(=O)[C@@H]4O)ccc3O[C@H]2CO)ccc1O [Silybin B] | 20.90 |
| COc1cc([C@H]2Oc3cc([C@H]4Oc5cc(O)cc(O)c5C(=O)[C@@H]4O)ccc3O[C@@H]2CO)ccc1O [Silybin A] | 9.64 |
| COc1cc([C@H]2Oc3c(O)cc([C@H]4Oc5cc(O)cc(O)c5C(=O)[C@@H]4O)cc3[C@@H]2CO)ccc1O [Silychristin B] | 3.51 |
